Assignment: determine reported melting point for the given compounds.
I only need the number, in °C, no unit after it.

Need melting point of COc1cc(OC)c(F)c(N(CCO)c2ccc3ncn(C4CCOCC4)c(=O)c3c2)c1 [Compound 63] , thanks.
191

Further, for COc1cc(OC)c(F)c(N(CCNC(C)C)c2ccc3ncn(-c4cccnc4)c(=O)c3c2)c1 [Compound 33] ?
133

Further, for COc1cc(OC)c(F)c(N(CCO)c2ccc3ncn(C4CCNCC4)c(=O)c3c2)c1 [Compound 48] ?
173

Further, for COc1cc(OC)cc(/C(=C\C#N)c2ccc3ncn(-c4cnn(C)c4)c(=O)c3c2)c1 [Compound 49] ?
217

Further, for COc1cc(OC)c(Cl)c(N(CCO)c2ccc3ncn(-c4ccccc4)c(=O)c3c2)c1Cl [Compound 5] ?
251

Further, for COc1cc(OC)c(F)c(N(CCO)c2ccc3ncn(-c4cnn(C)c4)c(=O)c3c2)c1F [Compound 18] ?
165

Further, for COc1cc(OC)c(F)c(N(CCO)c2ccc3ncn(-c4cncnc4)c(=O)c3c2)c1 [Compound 74] ?
200

Further, for `COc1cc(OC)c(F)c(N(Cc2nccn2S(=O)(=O)N(C)C)c2ccc3ncn(C4CCN(C(=O)OC(C)(C)C)CC4)c(=O)c3c2)c1F` ?
168

====

- TGT: FGFR3 (Homo sapiens, UniProt P22607)
- Construct: purchased DiscoveRx Corporation
- Sequence (P22607 23-806): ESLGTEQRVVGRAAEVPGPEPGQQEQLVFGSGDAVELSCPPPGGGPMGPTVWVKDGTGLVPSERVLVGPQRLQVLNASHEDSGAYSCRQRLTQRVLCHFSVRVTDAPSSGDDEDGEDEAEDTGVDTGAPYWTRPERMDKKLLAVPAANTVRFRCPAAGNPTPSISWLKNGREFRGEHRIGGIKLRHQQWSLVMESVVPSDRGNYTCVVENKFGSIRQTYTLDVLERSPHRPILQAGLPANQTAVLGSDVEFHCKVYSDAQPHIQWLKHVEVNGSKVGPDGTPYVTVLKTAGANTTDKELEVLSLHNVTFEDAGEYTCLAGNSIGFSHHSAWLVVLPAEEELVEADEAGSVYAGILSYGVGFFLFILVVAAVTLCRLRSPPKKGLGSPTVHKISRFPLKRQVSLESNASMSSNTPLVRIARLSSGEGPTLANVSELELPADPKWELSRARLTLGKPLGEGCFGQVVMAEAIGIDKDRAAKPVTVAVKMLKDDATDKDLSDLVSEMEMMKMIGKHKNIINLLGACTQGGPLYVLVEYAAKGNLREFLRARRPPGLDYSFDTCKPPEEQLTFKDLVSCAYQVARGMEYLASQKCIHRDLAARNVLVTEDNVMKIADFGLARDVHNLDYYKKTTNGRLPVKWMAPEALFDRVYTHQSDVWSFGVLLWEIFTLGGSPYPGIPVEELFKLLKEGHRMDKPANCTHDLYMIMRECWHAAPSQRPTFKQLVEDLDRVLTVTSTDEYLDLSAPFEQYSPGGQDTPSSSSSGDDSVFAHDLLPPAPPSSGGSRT
- PROTOCOL SUMMARY: Enzyme binding assay (KINOMEscan) FGFR3
- CONDITION INFO: pKd = -log Kd (M), read-out: FGFR3_pKd (converted)
OBSERVABLE: Kd (M)
I only need the number, in M, no unit after it.

Need Kd of `COc1cc(OC)c(F)c(N(Cc2nccn2S(=O)(=O)N(C)C)c2ccc3ncn(C4CCOCC4)c(=O)c3c2)c1` , thanks.
7.94e-07

Further, for `COc1cc(OC)cc(N(CCCO)c2ccc3ncn(C4CCOCC4)c(=O)c3c2)c1` ?
1.26e-06

Further, for `COc1cc(OC)cc(/C(=C\C#N)c2ccc3ncn(-c4cnn(C)c4)c(=O)c3c2)c1` ?
7.94e-07

Further, for `COc1cc(OC)cc(N(CCNC(C)C)c2ccc3ncn(-c4cccnc4)c(=O)c3c2)c1` ?
1.26e-07

Further, for COc1cc(OC)cc(N(CCCNC(C)C)c2ccc3ncn(C4CCOCC4)c(=O)c3c2)c1 [Compound 73] ?
1.58e-07

Further, for `COc1cc(OC)c(F)c(N(Cc2nccn2S(=O)(=O)N(C)C)c2ccc3ncn(-c4ccncc4)c(=O)c3c2)c1F` ?
6.31e-08

Further, for `COc1cc(OC)cc(N(Cc2ncc[nH]2)c2ccc3ncn(C4CCOCC4)c(=O)c3c2)c1` ?
1.58e-07

Further, for `CNCCN(c1cc(OC)cc(OC)c1)c1ccc2ncn(C3CCOCC3)c(=O)c2c1` ?
1.26e-06

====

- TGT: FGFR4 (Homo sapiens)
- Construct: purchased DiscoveRx Corporation
- Sequence (P22455 22-802): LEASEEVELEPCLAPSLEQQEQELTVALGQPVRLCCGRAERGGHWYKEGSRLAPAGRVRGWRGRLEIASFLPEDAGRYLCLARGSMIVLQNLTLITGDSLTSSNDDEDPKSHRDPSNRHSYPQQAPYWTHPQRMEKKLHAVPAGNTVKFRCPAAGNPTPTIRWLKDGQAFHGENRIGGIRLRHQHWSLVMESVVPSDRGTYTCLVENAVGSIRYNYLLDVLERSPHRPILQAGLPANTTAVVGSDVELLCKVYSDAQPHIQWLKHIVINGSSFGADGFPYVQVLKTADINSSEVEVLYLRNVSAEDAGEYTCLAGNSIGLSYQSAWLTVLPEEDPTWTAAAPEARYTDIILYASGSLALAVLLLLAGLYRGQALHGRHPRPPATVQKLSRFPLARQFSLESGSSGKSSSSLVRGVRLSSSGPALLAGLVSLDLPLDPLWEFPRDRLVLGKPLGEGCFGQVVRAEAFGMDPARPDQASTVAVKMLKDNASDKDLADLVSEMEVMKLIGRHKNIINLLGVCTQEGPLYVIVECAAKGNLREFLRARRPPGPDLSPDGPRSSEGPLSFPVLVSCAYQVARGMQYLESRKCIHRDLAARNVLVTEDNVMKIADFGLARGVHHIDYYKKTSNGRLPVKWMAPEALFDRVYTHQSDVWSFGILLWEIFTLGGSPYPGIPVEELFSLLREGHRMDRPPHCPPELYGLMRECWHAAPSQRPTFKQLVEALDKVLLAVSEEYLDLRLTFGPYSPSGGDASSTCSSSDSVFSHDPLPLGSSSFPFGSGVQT
- PROTOCOL SUMMARY: Enzyme binding assay (KINOMEscan) FGFR4
- CONDITION INFO: pKd = -log Kd (M), read-out: FGFR4_pKd (converted)
OBSERVABLE: Kd

Need Kd of `COc1cc(OC)cc(N(Cc2nccn2S(=O)(=O)N(C)C)c2ccc3ncn(C4CCOCC4)c(=O)c3c2)c1` , thanks.
> 3.16e-06 M

Further, for `COc1cc(OC)cc(N(CCO)c2ccc3ncn(C4CCNCC4)c(=O)c3c2)c1` ?
> 3.16e-06 M

Further, for `COc1cc(OC)c(F)c(N(CCCNC(C)C)c2ccc3ncn(C4CCNCC4)c(=O)c3c2)c1` ?
2e-07 M

Further, for `COc1cc(OC)cc(N(Cc2ncc[nH]2)c2ccc3ncn(C4CCNCC4)c(=O)c3c2)c1` ?
> 3.16e-06 M

Further, for `COc1cc(OC)c(F)c(N(Cc2nccn2S(=O)(=O)N(C)C)c2ccc3ncn(-c4cccnc4)c(=O)c3c2)c1` ?
1.26e-06 M

Further, for `COc1cc(OC)c(F)c(N(CCO)c2ccc3ncn(C4CCNCC4)c(=O)c3c2)c1` ?
> 3.16e-06 M

Further, for `COc1cc(OC)c(F)c(N(CCCO)c2ccc3ncn(C4CCNCC4)c(=O)c3c2)c1` ?
> 3.16e-06 M

Further, for `COc1cc(OC)c(F)c(N(CCNC(C)C)c2ccc3ncn(-c4cccnc4)c(=O)c3c2)c1` ?
2.51e-08 M
